method.summary: qHTS to identify inhibitors of the type 1 interferon - major histocompatibility complex class I in skeletal muscle: primary screen against the NCATS LOPAC collection (AID 1347405);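 further: human myoblasts with HiBiT tag on endogenous HLA-B stimulated by IFN-beta; lytic HiBiT luminescence reporting HLA-B protein level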
condition.info: iHSKM muscle cells, IFN-b-induced MHC-I HiBiT luminescence, 24 h; series mostly up to 45.9 µM
Results filed as inconclusive are left out. Active and inactive are the calls of the source. The call rests on the fitted dose curve; in most records, active means well fitted inhibition curve with a large enough effect; inconclusive means small, poorly fitted or top-dose-only effect; inactive means flat fitted curve, though single readings scatter.
Valid outcomes are listed here; reply with one: y = active, n = inactive

Query string: Outcome logged for CCN(CC)CCOC(=O)C1(C2CCCCC2)CCCCC1 in this assay:
Result string: n

Query string: Outcome logged for Cc1cc(N)c2ccccc2[n+]1CCCCCCCCCC[n+]1c(C)cc(N)c2ccccc21 in this assay:
Result string: n

Query string: Outcome logged for C[C@](N)(Cc1ccc(O)cc1)C(=O)O in this assay:
Result string: n

Query string: Outcome logged for CN(C)CC[C@@H](c1ccc(Cl)cc1)c1ccccn1 in this assay:
Result string: n

Query string: Outcome logged for CN(C)CCOC(C)(c1ccccc1)c1ccccn1 (stereo not given) in this assay:
Result string: n

Query string: Outcome logged for CC(C)C(=O)c1c(C(C)C)nn2ccccc12 in this assay:
Result string: n

Query string: Outcome logged for CC1=C(/C=C/C(C)=C/C=C/C(C)=C/C(=O)O)C(C)(C)CCC1 in this assay:
Result string: n

Query string: Outcome logged for CNCC(O)c1ccc(O)c(O)c1 (stereo not given) in this assay:
Result string: n
